All figures here come from patent US12714696B2.

Experiment: Pharmacokinetics after repeated oral administration of 35 μg/kg of fluralaner in dogs after feeding
Assay type: in vivo, beagle dogs
Details: beagle, dog, plasma, po, 35 μg/kg, 24 h; oral 35 μg/kg Days 0-3, dogs, n=6; read-out: fluralaner concentration levels, Median

>  <Compound>
Cc1cc(C2=NOC(c3cc(Cl)cc(Cl)c3)(C(F)(F)F)C2)ccc1C(=O)NCC(=O)NCC(F)(F)F (stereo not shown)

>  <concentration at 24 h (ng/mL)>
16.9

$$$$

* * *

Assay: Pharmacokinetics after repeated oral administration of 35 μg/kg of fluralaner in dogs after feeding
Format: in vivo, beagle dogs
Conditions: beagle, dog, plasma, po, 35 μg/kg, 480 h; oral 35 μg/kg Days 0-3, dogs; read-out: fluralaner concentration levels, individual animal

>  <Molecule>
Cc1cc(C2=NOC(c3cc(Cl)cc(Cl)c3)(C(F)(F)F)C2)ccc1C(=O)NCC(=O)NCC(F)(F)F (stereo not shown) [fluralaner, Fluralaner]

>  <Units label>
ng/mL

>  <concentration at 480 h>
25.3

$$$$

* * *

Test: Pharmacokinetics after repeated oral administration of 250 μg/kg and 35 μg/kg of fluralaner in dogs after feeding
Assay type: in vivo, beagle dogs
Conditions: beagle, dog, plasma, po, 96 h; oral 250/35/600 μg/kg regimen, dogs, n=6; read-out: fluralaner concentration levels, Mean

>  <Compound>
Cc1cc(C2=NOC(c3cc(Cl)cc(Cl)c3)(C(F)(F)F)C2)ccc1C(=O)NCC(=O)NCC(F)(F)F (stereo not shown) [fluralaner, Fluralaner]

>  <concentration at 96 h>
526 ng/mL

$$$$

* * *

Experiment: Pharmacokinetics after repeated oral administration of 250 μg/kg and 35 μg/kg of fluralaner in dogs after feeding
Type: in vivo, beagle dogs
Details: beagle, dog, plasma, po, oral 250/35/600 μg/kg regimen, dogs; read-out: mean Cmax

>  <Molecule>
Cc1cc(C2=NOC(c3cc(Cl)cc(Cl)c3)(C(F)(F)F)C2)ccc1C(=O)NCC(=O)NCC(F)(F)F (stereo not shown) [fluralaner, Fluralaner]

>  <Cmax>
733 ng/mL

$$$$

* * *

Experiment: Pharmacokinetics after repeated oral administration of 250 μg/kg and 35 μg/kg of fluralaner in dogs after feeding
Assay type: in vivo, beagle dogs
Settings: beagle, dog, plasma, po, 120 h; oral 250/35/600 μg/kg regimen, dogs, n=6; read-out: fluralaner concentration levels, Mean

>  <Molecule>
Cc1cc(C2=NOC(c3cc(Cl)cc(Cl)c3)(C(F)(F)F)C2)ccc1C(=O)NCC(=O)NCC(F)(F)F (stereo not shown)

>  <Units label>
µg/mL

>  <concentration at 120 h>
0.509

$$$$

* * *

Test: Pharmacokinetics after repeated oral administration of 250 μg/kg and 35 μg/kg of fluralaner in dogs after feeding
Type: in vivo, beagle dogs
Details: beagle, dog, plasma, po, 720 h; oral 250/35/600 μg/kg regimen, dogs, n=6; read-out: fluralaner concentration levels, Median
Reported property: concentration at 720 h

>  <Compound>
Cc1cc(C2=NOC(c3cc(Cl)cc(Cl)c3)(C(F)(F)F)C2)ccc1C(=O)NCC(=O)NCC(F)(F)F (stereo not shown) [fluralaner, Fluralaner]

>  <Readout value>
280 ng/mL

$$$$

* * *

Experiment: Pharmacokinetics after repeated oral administration of 35 μg/kg of fluralaner in dogs after feeding
Assay type: in vivo, beagle dogs
Details: beagle, dog, plasma, po, 35 ug/kg, oral 35 μg/kg Days 0-3, dogs; read-out: Cmax, individual animal

>  <Compound>
Cc1cc(C2=NOC(c3cc(Cl)cc(Cl)c3)(C(F)(F)F)C2)ccc1C(=O)NCC(=O)NCC(F)(F)F (stereo not shown)

>  <Cmax [ng/mL]>
71.8

$$$$
